FYI, the data here is from PubChem BioAssay (Tox21).

molecular target: Androgen receptor (Homo sapiens) (UniProt P10275); experiment: qHTS assay to identify small molecule agonists of the androgen receptor (AR) signaling pathway (AID 743036); conditions: HEK293 AR-UAS-bla GripTite, beta-lactamase FRET ratio, 16 h; series mostly up to 62.4 µM
Sequence (P10275 whole entry, looked up): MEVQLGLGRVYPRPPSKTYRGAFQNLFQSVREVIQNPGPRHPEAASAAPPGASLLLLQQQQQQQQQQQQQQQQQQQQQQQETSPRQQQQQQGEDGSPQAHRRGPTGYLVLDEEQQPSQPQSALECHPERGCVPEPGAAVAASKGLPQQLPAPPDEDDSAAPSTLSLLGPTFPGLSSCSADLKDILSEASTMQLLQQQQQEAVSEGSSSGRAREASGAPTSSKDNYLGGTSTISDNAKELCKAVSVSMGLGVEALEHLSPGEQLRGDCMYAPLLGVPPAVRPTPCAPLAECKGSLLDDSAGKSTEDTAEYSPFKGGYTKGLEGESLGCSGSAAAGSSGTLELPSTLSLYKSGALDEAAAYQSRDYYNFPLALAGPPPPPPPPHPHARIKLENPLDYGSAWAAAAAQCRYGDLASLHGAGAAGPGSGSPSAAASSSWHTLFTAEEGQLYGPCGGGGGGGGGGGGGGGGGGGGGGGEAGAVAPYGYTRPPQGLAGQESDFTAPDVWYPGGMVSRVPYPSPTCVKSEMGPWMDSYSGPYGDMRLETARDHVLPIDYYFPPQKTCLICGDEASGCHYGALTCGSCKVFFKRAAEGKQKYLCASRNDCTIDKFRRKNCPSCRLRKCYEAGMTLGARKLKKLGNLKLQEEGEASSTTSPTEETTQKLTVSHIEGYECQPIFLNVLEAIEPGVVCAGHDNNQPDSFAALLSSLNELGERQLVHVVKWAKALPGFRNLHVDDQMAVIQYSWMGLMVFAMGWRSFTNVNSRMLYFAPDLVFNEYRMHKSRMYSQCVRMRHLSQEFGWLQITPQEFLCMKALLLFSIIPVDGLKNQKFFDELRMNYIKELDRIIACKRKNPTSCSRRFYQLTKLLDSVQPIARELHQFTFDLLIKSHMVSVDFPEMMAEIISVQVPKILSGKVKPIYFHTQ
Inconclusive results are not listed. The source made the active and inactive calls. Calls come from the whole dose curve; as a rule, active = well fitted activation curve with a large enough effect in the signal ratio in the repeat runs, with a control signal flat (not every such curve was filed as active); inconclusive = weak or mixed curves, or effect the other way; inactive = no such curve, though single readings can be large or run the other way; the % refers to the signal ratio. Starred links: 1 amine or outer side, 2 acyl side, 3 side chain; linkers in the order of their positions; H or OH if unused. Positions of bridges follow the written chain, without caps; N, C: chain ends. Non-standard residues stand in square brackets, D forms with d. Residues, ends and D or L forms follow the SMILES beside them. Chains are numbered I, II in the order given. Actinocin(9to1) = Cc1c2oc3c(C)ccc(C(=O)[*:1])c3nc-2c(C(=O)[*:2])c(N)c1=O; NMeV = CN[C@H](C(=O)O)C(C)C; Sar = CNCC(=O)O
Labels: T (active), F (inactive)

Cc1ccc(-c2cc(C(F)(F)F)nn2-c2ccc(S(N)(=O)=O)cc2)cc1	F
Oc1ccc(Cl)cc1Cc1cc(Cl)ccc1O	F
CCc1ccc(C(c2ccc(CC)cc2)C(Cl)Cl)cc1	F
CCC(C)(Oc1ccc(C2(c3ccc(OC(C)(CC)C(=O)O)cc3)CCCCC2)cc1)C(=O)O (stereo not drawn)	F
Nc1nc(=S)c2[nH]cnc2[nH]1	F
CC(C)CCOCc1ccccc1	F
Cc1c2oc3c(C)ccc(C(=O)N[C@@H]4C(=O)N[C@H](C(C)C)C(=O)N5CCC[C@H]5C(=O)N(C)CC(=O)N(C)[C@@H](C(C)C)C(=O)O[C@@H]4C)c3nc-2c(C(=O)N[C@@H]2C(=O)N[C@H](C(C)C)C(=O)N3CCC[C@H]3C(=O)N(C)CC(=O)N(C)[C@@H](C(C)C)C(=O)O[C@@H]2C)c(N)c1=O (I: T[dV]P[Sar][NMeV] / II: T[dV]P[Sar][NMeV]; ester I:1-I:C, II:1-II:C; linker I:N-II:N via Actinocin(9to1))	F
CC1COC(=O)O1 (stereo not drawn)	F
CCN(CC)C(=O)Nc1ccc(OCC(O)CNC(C)(C)C)c(C(C)=O)c1 (stereo not drawn)	F
CCN(CC)C(=S)SSC(=S)N(CC)CC	F
Cc1ccc(S(=O)(=O)Oc2ccc(N=Nc3ccc(-c4ccc(N=Nc5c(O)ccc6cc(S(=O)(=O)O)cc(S(=O)(=O)O)c56)c(C)c4)cc3C)cc2)cc1	F
COC(=O)c1cccc(C(=O)OC)c1	F
O=Cc1ccc(Cl)cc1	T

====

assay: A CellTox Green Cytotoxicity Assay to monitor cytotoxicity in HepG2 cells - 24 hour (AID 1224878); details: CellTox Green fluorescence; series mostly up to 76.8 µM; note: nearly all actives have a fitted effect of over 45% in size
Records with an inconclusive call do not appear. The source made the active and inactive calls. The call rests on the fitted dose curve; in most records, active means well fitted activation curve with a large enough effect in the repeat runs; inconclusive means weak or mixed curves; inactive means flat fitted curve, though single readings scatter.
Endpoint name: cytotoxicity

CC(C)(c1ccccc1)c1ccc(Nc2ccc(C(C)(C)c3ccccc3)cc2)cc1	inactive
Cc1ccc(S(=O)(=O)Oc2ccc(N=Nc3ccc(-c4ccc(N=Nc5c(O)ccc6cc(S(=O)(=O)O)cc(S(=O)(=O)O)c56)c(C)c4)cc3C)cc2)cc1	inactive
COc1nc(C)nc(Cl)c1NC1=NCCN1	inactive
NC(N)=NC(=O)Cc1c(Cl)cccc1Cl	inactive
CC(C)(C)NCC(O)c1cc(O)cc(O)c1 (stereo not given)	inactive

====

molecular target: Luciferin 4-monooxygenase (Photinus pyralis); experiment: qHTS assay to identify small molecule inhibitors of firefly luciferase (AID 1224835); note: nearly all actives have a fitted effect of over 25% in size; details: purified P. pyralis luciferase, luminescence inhibition; series mostly up to 115 µM
Records with an inconclusive call do not appear. Calls of active or inactive are those of the source. Calls come from the whole dose curve; as a rule, active = well fitted inhibition curve with a large enough effect in the repeat runs; inconclusive = weak or mixed curves; inactive = flat fitted curve, though single readings scatter.
Classes used: Y for active, N for inactive

CCCNC(C)C(=O)Nc1ccccc1C (stereo not drawn)	N
Cc1cc(Cc2cc(C)cc(C(C)(C)C)c2O)c(O)c(C(C)(C)C)c1	N
c1cnc2cc3c(cc2n1)C1CNCC3C1	N
CCCCCC(=O)O[C@]1(C(C)=O)CC[C@H]2[C@@H]3CCC4=CC(=O)CC[C@]4(C)[C@H]3CC[C@@]21C	N
C[N+]1([O-])CCOCC1	N
Cc1ccc(-c2cc(C(F)(F)F)nn2-c2ccc(S(N)(=O)=O)cc2)cc1	N
Clc1ccc2c(c1)C(N1CCNCC1)=Nc1ccccc1O2	N
COc1ccc(Cc2cnc(N)nc2N)cc1OC	N
CC(C)CCOCc1ccccc1	N
CC(C)(C)NCC(O)c1cc(O)cc(O)c1 (stereo not drawn)	N
Oc1c(Cl)cc(Cl)cc1Sc1cc(Cl)cc(Cl)c1O	N
COC(=O)[C@H]1[C@H]2C[C@@H]3c4[nH]c5cc(OC)ccc5c4CCN3C[C@H]2C[C@@H](OC(=O)c2cc(OC)c(OC)c(OC)c2)[C@@H]1OC	N
CC1=C(C=O)C(C)(C)CC=C1	N
C=C(C)C1CC=C(C)C(OC(C)=O)C1 (stereo not drawn)	N
CC(=O)O[C@]1(C(C)=O)CC[C@H]2[C@@H]3C[C@H](C)C4=CC(=O)CC[C@]4(C)[C@H]3CC[C@@]21C	N
NC(N)=Nc1nc(CSCC/C(N)=N/S(N)(=O)=O)cs1	N
O=Cc1ccc(Cl)cc1	N
CC(C)CCOC(=O)c1ccc(N(C)C)cc1	Y
CC[C@]1(O)C[C@@H]2CN(CCc3c([nH]c4ccccc34)[C@@](C(=O)OC)(c3cc4c(cc3OC)N(C)[C@H]3[C@@](O)(C(=O)OC)[C@H](OC(C)=O)[C@]5(CC)C=CCN6CC[C@]43[C@@H]65)C2)C1	N
C1COC(NC(C2CC2)C2CC2)=N1	N
CC(COc1ccccc1)N(CCCl)Cc1ccccc1 (stereo not drawn)	N
COc1cc(C(=S)N2CCOCC2)ccc1O	N
O=C1OC2(c3ccc(O)cc3Oc3cc(O)ccc32)c2ccccc21	N
